Measured shrunken log2 fold change, listed per entry.
Test system: Escherichia coli TOP10;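 further: peptides expressed intracellularly from a pBAD plasmid library in pooled LB shake-flask culture, induced with 0.3% L-arabinose, DNA abundance read by NGS, three biological replicates, DESeq2 with apeglm shrinkage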
Experiment: shrunken log2 fold change of peptide-encoding DNA abundance (4.5 h post-induction vs induction); higher = less antimicrobial activity (less host growth inhibition)
Settings: time post-induction: 4.5 h; library: site-saturation at positions 5, 18, 19, 20
Metric Name: shrunken log2 fold change

RRIRCRPPRLPRPRPRPPVCPRP 0.222
RRIRIRPPRLPRPRPRPNSYPRP -0.084
RRIRFRPPRLPRPRPRPELYPRP 0.0341
RRIRWRPPRLPRPRPRPFGQPRP -0.0338
RRIRSRPPRLPRPRPRPEVSPRP 0.214
RRIRGRPPRLPRPRPRPAIAPRP 0.91
RRIRDRPPRLPRPRPRPTVPPRP -0.326
RRIRSRPPRLPRPRPRPWRSPRP 0.00174
RRIRLRPPRLPRPRPRPLDRPRP 0.25
